Tested on: SARS-CoV-2 (B.1.351)
assay_procedure: Plaque reduction assay in VeroE6-TMPRSS2
Format: cell-based
measurement_conditions: Severe acute respiratory syndrome coronavirus 2
attribute_measured: pEC50
On this scale, pEC50 is minus log10 of a concentration expressed in M (mol/L).

# input compound: COC[C@@H](NC(=O)C1CCCC(F)(F)C1)C(=O)N[C@H](Cc1ccccc1)C(=O)C(=O)NCc1nccs1 (some centres unmarked) [SY110] ; wanted: its pEC50
5.55

# input compound: CC(C)(C)[C@H](NC(=O)C(F)(F)F)C(=O)N1C[C@H]2[C@@H]([C@H]1C(=O)N[C@H](C#N)C[C@@H]1CCNC1=O)C2(C)C [Nirmatrelvir, reference compound] ; wanted: its pEC50
4.54

The origin of these recorded values is paper PMC10018608.
